Where do the numbers come from? From paper PMC9508196.

- System: Salmonella Typhimurium ATCC 13,311
- Assay type: cell-based
- test_conditions: S. Typhimurium ATCC 13,311; broth microdilution, MHB, 24 h, 37 °C, triplicate
No end group written: not given here.
outcome_measure: MIC (µg/mL)

INSERT INTO results (substance, unit_of_measure, test_result) VALUES
  ('RLFRRVKKVAGK-NH2 [AP12]', 'µg/mL', 125),
  ('RLFRRVKKVAGKIAKRI-NH2 [AP17]', 'µg/mL', 7.81),
  ('RLFRRVKKVAGKIAKRIWKILRR-NH2 [A3P7]', 'µg/mL', 7.81),
  ('RLFRRVKKVAGKIAKRIW-NH2 [AP18]', 'µg/mL', 3.91),
  ('RLFRRVKKVAGKIAK-NH2 [AP15]', 'µg/mL', 31.25),
  ('RLFRRVKKVAGKIAKRIWK-NH2 [AP19]', 'µg/mL', 1.95),
  ('RLFRRVKKVAGKIA-NH2 [AP14]', 'µg/mL', 62.5),
  ('RLFRRVKKVAGKI-NH2 [AP13]', 'µg/mL', 62.5),
  ('RLFRRVKKVAGKIAKR-NH2 [AP16]', 'µg/mL', 15.63);
